All values here come from paper PMC4912613.

# Test system: TM90C2A (DHFR, folate pathway; compared with 3D7)
# Assay procedure: Cross-resistance EC50 assay, TM90C2A
# Format: cell-based
# Condition notes: Plasmodium falciparum, 48 h, read-out: TM90C2A (3D7 Parent) Average EC50
Kindly supply the reported pEC50 values for the records listed here.
Scale: negative log10 of molar concentration, which is what pEC50 denotes.

Give its pEC50 value. Item: Cc1ccc(Cn2c(N3CCC(C(=O)NCc4cccs4)CC3)nc3ccccc32)cc1 [MMV007564]
6.18

Now try CN(C)S(=O)(=O)c1cc(-c2ccc3nccc(-c4cccc(S(N)(=O)=O)c4)c3c2)cnc1N [MMV024038] .
6.71

Now try O=C(NC(c1ccccc1)c1ccc2cccnc2c1O)c1ccccc1 (centres unmarked) [MMV666080] .
6.07

Now try Nc1ncc(-c2cn[nH]c2)cc1-c1nc2ccc(F)cc2[nH]1 [MMV023367] .
6.35

Now try CN(C)CCCN(C)C(=O)C1Cc2cc(-c3ccccc3)ccc2N1S(=O)(=O)c1ccccc1 (centres unmarked) [MMV028895] .
6.60

Now try Cc1nc2ccc3ccc(CNc4ccc(C(=O)CC(CCC(=O)O)C(=O)O)cc4)cc3c2c(=O)[nH]1.Cl (centres unmarked) [MMV027634] .
7.19

Now try Cc1ccc(Oc2ncccc2C(=O)Cc2cccc3cccnc23)c(C)c1 [MMV020746] .
6.70

Now try CCN(CC)S(=O)(=O)c1ccc(-c2csc(Nc3ccc(C)c(C)c3)n2)cc1 [MMV009108] .
6.35

Now try COc1ccccc1CNC(=O)CCn1c(=O)[nH]c2ccsc2c1=O [MMV019066] .
5.79

Now try COc1ccc(N2CCN(C(CNC(=O)C3CCCCC3)c3ccc4c(c3)OCO4)CC2)cc1 (centres unmarked) [MMV019662] .
6.68

Now try CNCc1ccc2nc(-c3coc(Cc4cc(Cl)ccc4OCC(C)C)n3)[nH]c2c1.Cl.Cl [MMV026596] .
6.57

Now try O=C(Nc1ccsc1C(=O)NC1CCCCC1)c1ccc(F)cc1 [MMV665939] .
5.87

Now try CCCOCc1cc(CN2CCN(c3cccc(Cl)c3)CC2)c(O)c2ncccc12 [MMV000787] .
5.98

Now try O=C(NCC(CCCN1CCC(c2c[nH]c3ccccc23)CC1)c1ccccc1)Nc1ccc(Cl)c(Cl)c1 (centres unmarked) [MMV029272] .
6.38

Now try FC(F)(F)c1cccc(Nc2nc3ccccc3nc2Nc2cccc(C(F)(F)F)c2)c1 [MMV665794] .
7.14

Now try COc1ccc(-c2nc(NC(=O)Cc3ccc4c(c3)OCCO4)sc2C)cc1 [MMV019719] .
6.68

Now try COC(=O)c1ccc(C2C3=C(O)CC(c4ccc(F)cc4)CC3=Nc3ccccc3N2C(=O)c2ccccc2)cc1 (centres unmarked) [MMV011438] .
6.49
